The reported measurements were obtained from the supplement of paper PMC8728848.

Target: Neu5Ac(a2-6)GlcNAc(b1-4)GlcNAc
Experiment: glycan array binding signal (z-score within array); higher = stronger binding
Conditions: glycan notation: IUPAC condensed, linker removed
The sample as a whole holds a higher share of the strongest signals than the screen did.
Label rule, in plain words: glycan array binding signal (z-score) of -0.5 and up is t, under -0.5 is f.

Binder	Class Label
AFL6 (Aspergillus fumigatus), Q4WKJ1 (protein) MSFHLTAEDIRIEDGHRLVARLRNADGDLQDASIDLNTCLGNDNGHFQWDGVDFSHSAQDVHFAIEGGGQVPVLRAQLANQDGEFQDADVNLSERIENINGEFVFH	t
GST Gap3 (Streptococcus parasanguinis) (protein) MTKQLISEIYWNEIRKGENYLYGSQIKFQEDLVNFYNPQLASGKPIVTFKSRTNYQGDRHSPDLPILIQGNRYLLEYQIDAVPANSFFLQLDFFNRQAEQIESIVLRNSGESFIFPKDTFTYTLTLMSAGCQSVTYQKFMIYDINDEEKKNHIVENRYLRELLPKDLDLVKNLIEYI	t
SAOUHSC 02783 (Staphylococcus aureus), Q5HD69 (protein) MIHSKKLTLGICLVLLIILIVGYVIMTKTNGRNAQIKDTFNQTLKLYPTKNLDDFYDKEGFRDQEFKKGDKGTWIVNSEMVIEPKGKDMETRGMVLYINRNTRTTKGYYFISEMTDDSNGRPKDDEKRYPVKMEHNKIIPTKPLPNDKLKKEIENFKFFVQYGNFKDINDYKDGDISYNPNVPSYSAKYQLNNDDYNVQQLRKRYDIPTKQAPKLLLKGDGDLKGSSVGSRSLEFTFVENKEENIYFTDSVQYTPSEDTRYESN	t
PEB3 (Campylobacter jejuni), Q0PBL7 (protein) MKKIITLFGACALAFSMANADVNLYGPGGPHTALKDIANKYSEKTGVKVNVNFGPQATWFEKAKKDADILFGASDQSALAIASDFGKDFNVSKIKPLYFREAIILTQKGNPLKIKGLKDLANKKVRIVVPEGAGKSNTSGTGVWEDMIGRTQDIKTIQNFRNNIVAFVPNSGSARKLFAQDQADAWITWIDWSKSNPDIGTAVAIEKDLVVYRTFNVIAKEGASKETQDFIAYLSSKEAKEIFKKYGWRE	f
AcfC (Vibrio cholerae), Q57410 (protein) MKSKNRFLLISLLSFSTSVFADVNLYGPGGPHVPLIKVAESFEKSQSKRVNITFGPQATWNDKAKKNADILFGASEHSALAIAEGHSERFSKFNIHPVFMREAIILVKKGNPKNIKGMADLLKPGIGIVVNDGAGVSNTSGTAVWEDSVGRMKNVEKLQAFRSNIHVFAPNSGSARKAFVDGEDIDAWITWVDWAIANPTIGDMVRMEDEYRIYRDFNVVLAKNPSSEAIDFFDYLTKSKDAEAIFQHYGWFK	f

# evaluate next
## Task Can RbmA (Vibrio cholerae), A0A2H4NFB8 (protein) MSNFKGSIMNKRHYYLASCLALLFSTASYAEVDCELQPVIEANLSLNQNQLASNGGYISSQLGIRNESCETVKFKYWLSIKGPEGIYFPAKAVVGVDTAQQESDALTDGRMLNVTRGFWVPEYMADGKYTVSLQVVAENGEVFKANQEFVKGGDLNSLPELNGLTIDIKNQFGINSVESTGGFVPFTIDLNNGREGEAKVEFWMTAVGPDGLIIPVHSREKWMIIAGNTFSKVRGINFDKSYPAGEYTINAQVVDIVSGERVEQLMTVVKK be said to have glycan array binding signal (z-score) at or above -0.5?
## Result t
